Tested on: HT-29 cells
Protocol Notes: MTT antiproliferative assay in HT-29 cells
Format: cell-based, human
Measurement Setup: Homo sapiens, HT-29; antiproliferative, MTT, 48 h, mean ± SD (n = 3); read-out: IC50 HT-29 (48 h)
Value Kind: IC50 (µM)

Molecule	Measurement Unit	Comparison Symbol	Assay Result
Oc1cc(O)cc(CCc2ccccc2)c1 [DHP, 3-hydroxy-(5-phenethyl)phenol]	µM	>	100
Oc1ccc(CCc2cccc(O)c2)cc1 [LUNU, 3-(4-hydroxyphenethyl)phenol]	µM	>	100
Oc1ccc(CCc2cc(O)cc(O)c2)cc1 [DHRSV, Dihydroresveratrol]	µM	>	100
OCc1ccc(/C=C/c2ccccc2)cc1 [4STMe, trans-4-stilbenemethanol]	µM	=	85.4
Oc1ccc(/C=C/c2cc(O)cc(O)c2)cc1 [RSV, 3,5,4′-trihydroxy-trans-stilbene]	µM	=	68.9
COc1cc(/C=C/c2ccc(O)cc2)cc(OC)c1 [PTERO, 3,5-dimethoxy, 4′-hydroxy-trans-stilbene]	µM	=	45.1
Oc1cc(O)cc(/C=C/c2ccc(O)c(O)c2)c1 [PICE, 3,5,3′,4′-tetrahydroxy-trans-stilbene]	µM	=	78.5
Oc1ccc(CCc2ccccc2)cc1	µM	>	100

====

Tested on: HT-29 cells
Protocol Notes: MTT antiproliferative assay in HT-29 cells
Assay type: cell-based, human
Measurement Setup: Homo sapiens, HT-29; antiproliferative, MTT, 48 h, mean ± SD (n = 3); read-out: IC50 HT-29 (48 h)
pIC50: −log10 of the molar value.

Molecule	Comparison Symbol	pIC50
Oc1ccc(C=Cc2cccc(O)c2)cc1 [DHST, 3-(4-hydroxystyryl)phenol]	=	4.19
Oc1cc(O)cc(/C=C/c2ccccc2)c1 [PINO, 3,5-dihydroxy-trans-stilbene]	=	4.43
Oc1ccc(/C=C/c2ccccc2)cc1 [4HST, 4-Hydroxy-trans-stilbene]	=	4.47
Oc1cccc(CCc2ccccc2)c1	<	4.00
Oc1cc(O)cc(/C=C/c2ccc(O)cc2O)c1 [Oxy-RSV, 3,5,2′,4′-tetrahydroxy-trans-stilbene]	=	4.01

====

Here the recorded IC50 is given for each entry.
System: CCD18-Co cells
Protocol Notes: MTT antiproliferative assay in non-tumorigenic CCD18-Co cells
Type: cell-based
Measurement Setup: Homo sapiens, CCD-18Co, 72 h, non-tumorigenic colon cells

Molecule	IC50 / µM
Oc1ccc(CCc2cc(O)cc(O)c2)cc1 [DHRSV, Dihydroresveratrol]	53
Oc1ccc(CCc2cccc(O)c2)cc1 [LUNU, 3-(4-hydroxyphenethyl)phenol]	67

====

System: Caco-2 cells
Protocol Notes: MTT antiproliferative assay in Caco-2 cells
Assay type: cell-based, human
Measurement Setup: Homo sapiens, Caco-2; antiproliferative, MTT, 72 h, mean ± SD (n = 3); read-out: IC50 Caco-2 (72 h)
Listed below: IC50 values for each entry.

Compound	IC50 / µM
OCc1ccc(/C=C/c2ccccc2)cc1 [4STMe, trans-4-stilbenemethanol]	59.9
COc1cc(/C=C/c2ccc(O)cc2)cc(OC)c1 [PTERO, 3,5-dimethoxy, 4′-hydroxy-trans-stilbene]	43
Oc1ccc(C=Cc2cccc(O)c2)cc1 [DHST, 3-(4-hydroxystyryl)phenol]	22.7
Oc1cc(O)cc(/C=C/c2ccc(O)c(O)c2)c1 [PICE, 3,5,3′,4′-tetrahydroxy-trans-stilbene]	42
Oc1ccc(/C=C/c2ccccc2)cc1 [4HST, 4-Hydroxy-trans-stilbene]	11.4
Oc1ccc(CCc2cc(O)cc(O)c2)cc1 [DHRSV, Dihydroresveratrol]	33.8
Oc1ccc(CCc2cccc(O)c2)cc1 [LUNU, 3-(4-hydroxyphenethyl)phenol]	50.5
Oc1ccc(/C=C/c2cc(O)cc(O)c2)cc1 [RSV, 3,5,4′-trihydroxy-trans-stilbene]	18.8

====

Tested on: HT-29 cells
Protocol Notes: MTT antiproliferative assay in HT-29 cells
Assay type: cell-based, human
Measurement Setup: Homo sapiens, HT-29; antiproliferative, MTT, 72 h, mean ± SD (n = 3); read-out: IC50 HT-29 (72 h)
Overview of recorded IC50 for various compounds
Value Kind: IC50

Compound	Study System	Assay Result
OCc1ccc(/C=C/c2ccccc2)cc1 [4STMe, trans-4-stilbenemethanol]	HT-29 cells	57.1 µM
Oc1ccc(/C=C/c2ccccc2)cc1 [4HST, 4-Hydroxy-trans-stilbene]	HT-29 cells	24.4 µM
Oc1cc(O)cc(/C=C/c2ccc(O)c(O)c2)c1 [PICE, 3,5,3′,4′-tetrahydroxy-trans-stilbene]	HT-29 cells	69.5 µM
Oc1cc(O)cc(/C=C/c2ccccc2)c1 [PINO, 3,5-dihydroxy-trans-stilbene]	HT-29 cells	38.1 µM
